biological target: T1, M7-1; test: scFv-phage ELISA
T1 construct: also called PD1 mutant M7-1
outcome.measure: OD490
Please give the numeric answer without any surrounding text.

Below, 2 binders whose answers are already recorded.
{"columns": ["binder", "OD490"],
 "data": [
  ["PD1-29H3 (antibody, V domains shown, scFv-phage in the screening ELISA; later whole IgG) VH: QMQLVESGGNLVQPGRSLRLSCAASGFTFDDYGMHWVRQAPGKGLEWVSSISWNSGTIGYADSVKGRFTISRDNAKNSLYLQMNSLRSEDTAVYYCARLLHQMNEHEFMDVWGQGTTVTVSS VL: QLVLTQPSSMSEAPGQRVTISCSGGTSNIGTNAVNWYQQPPGKAPTLLIYYDDRLTSGVSDRFSGSKSGTSASLAISRLQSEDEADYYCAAWDDSLNGWVFGGGTKLTVL", 1.5],
  ["PD1-49A2 (antibody, V domains shown, scFv-phage in the screening ELISA; whole IgG in the other assays; also called Parent 49A2) VH: QVQLVESGGGVVQPGRSLRLSCAASGFTFSSYAMHWVRQAPGKGLEWVAVISYDGSNKYYADSVKGRFTISRDNPKNTLYLQMNSLRAEDTAVYYCTTTTFDSWGRGTLVTVSS VL: DIVMTQSPLSLPVTPGEPASISCRSSQSLFDSDDGNTYLDWYLQKPGQSPQLLIYTLSHRASGVPDRFSGSGSGTDFTLKISRVEAEDVGIYYCLQRMGFPYTFGQGTKVEIK", 0.5]
]}

In the following, a different binder is considered.
OD490 for PD1-45F4 (antibody, V domains shown, scFv-phage in the screening ELISA; later whole IgG) VH: QMQLVESGGGLVQPGRSLRLSCAASGFTFDDYAMHWVRQAPGQGLEWVSGISWNSNNIKYADSVKGRFTISRDNSKNSLYLQMNSLRAEDTAVYYCARGALTPLDVWGQGTPVTVSS VL: SYELTQAPSLSVSPGQTANIICSGDNLRTKYVSWYQQKPGQSPLLVIYQDTRRPSGIPARFSGSNSGNTATLTISGTQTRDESTYYCMTWDVDTTSMIFGGGTKLTVL ?
3.5

Origin of measurements: patent US20190248900A1
